# Optical band gap per record follows
Test: UV-vis absorption, optical band gap
Type: physicochemical
Details: UV-vis absorption (Kubelka-Munk spectra)
Number plus unit, in that order.

compound="O=C1Nc2ccc(Br)cc2/C1=C1\\C(=O)Nc2ccc(Br)cc21 [55DBIId, 5,5′-Dibromoisoindigo]" result="1.99 eV"
compound="CCCCC(CC)CN1C(=O)/C(=C2/C(=O)N(CC(CC)CCCC)c3ccccc32)c2ccccc21 (stereo not shown) [NNDEHIId, N,N′-Di-(2-ethylhexyl)-isoindigo]" result="2.00 eV"
compound="O=C1Nc2ccccc2/C1=C1\\C(=O)Nc2ccc(Br)cc21 [5BIId, 5-Bromoisoindigo]" result="2.04 eV"
compound="COC(=O)c1ccc2c(c1)NC(=O)/C2=C1/C(=O)Nc2cc(C(=O)OC)ccc21 [66DMCIId, Dimethyl isoindigo-6,6′-dicarboxylate]" result="2.02 eV"
compound="COc1ccc2c(c1)/C(=C1\\C(=O)Nc3ccc([N+](=O)[O-])cc31)C(=O)N2 [5M5NIId, 5-Methoxyl-5′-nitroisoindigo]" result="1.71 eV"
compound="COC(=O)c1ccc2c(c1)NC(=O)/C2=C1/C(=O)Nc2cc(Br)ccc21 [6B6MCIId, Methyl 6-bromoisoindigo-6′-carboxylate]" result="2.02 eV"
compound="O=C1Nc2cc(F)c(F)cc2/C1=C1\\C(=O)Nc2cc(F)c(F)cc21 [5566TFIId, 5,5′,6,6′-Tetrafluoroisoindigo]" result="2.02 eV"
compound="COC(=O)CNC(=O)c1ccc2c(c1)NC(=O)/C2=C1/C(=O)Nc2ccccc21 [6AIIdGly, Methyl isoindigo-6-carbonylglycinate]" result="2.04 eV"
compound="O=C1Nc2ccccc2/C1=C1\\C(=O)Nc2cc(C(=O)O)ccc21 [6CIId, Isoindigo-6-carboxylic Acid]" result="2.01 eV"
compound="CCCN1C(=O)/C(=C2/C(=O)N(CCC)c3cc(Br)ccc32)c2ccc(Br)cc21 [NNDPr66DBIId, N,N′-Dipropyl-6,6′-dibromoisoindigo]" result="2.02 eV"

Qu. Need Optical band gap, item O=C1Nc2ccccc2/C1=C1\C(=O)Nc2ccccc21 [IId, Isoindigo]
Ans. 2.04 eV

Qu. Need Optical band gap, item COC(=O)c1ccc2c(c1)NC(=O)/C2=C1/C(=O)Nc2ccc([N+](=O)[O-])cc21 [5N6MCIId, Methyl-5-nitroisoindigo-6-carboxylate]
Ans. 2.08 eV

Qu. Need Optical band gap, item COC(=O)C(CO)NC(=O)c1ccc2c(c1)NC(=O)/C2=C1/C(=O)Nc2cc(Br)ccc21 (stereo not shown) [6B6AIIdSer]
Ans. 2.03 eV

###

# E1/2 in N2 (second) per record follows
Experiment: Cyclic voltammetry of isoindigos in DMF (half-wave redox potentials under N2 or CO2)
Type: physicochemical
Details: second half-wave potential vs. Fc^+/Fc; 2.5 mM in DMF, 0.1 M NBu4PF6, N2, 298 K
Provide only the numeric value, understood in V.

Would you please look over these solved cases?
compound="COC(=O)CNC(=O)c1ccc2c(c1)NC(=O)/C2=C1/C(=O)Nc2ccccc21 [6AIIdGly, Methyl isoindigo-6-carbonylglycinate]" result_type="E1/2 in N2 (second)" readout_number=−1.62
compound="CCCCC(CC)CN1C(=O)/C(=C2/C(=O)N(CC(CC)CCCC)c3ccccc32)c2ccccc21 (centres unmarked) [NNDEHIId, N,N′-Di-(2-ethylhexyl)-isoindigo]" result_type="E1/2 in N2 (second)" readout_number=−1.80
compound="O=C1Nc2ccccc2/C1=C1\\C(=O)Nc2ccc([N+](=O)[O-])cc21 [5NIId, 5-Nitroisoindigo]" result_type="E1/2 in N2 (second)" readout_number=−1.57
compound="O=C1Nc2ccc(F)cc2/C1=C1\\C(=O)Nc2ccc(F)cc21 [55DFIId, 5,5′-Difluoroisoindigo]" result_type="E1/2 in N2 (second)" readout_number=−1.69
compound="O=C1Nc2ccccc2/C1=C1\\C(=O)Nc2cc(Br)ccc21 [6BIId, 6-Bromoisoindigo]" result_type="E1/2 in N2 (second)" readout_number=−1.75
compound="COC(=O)c1ccc2c(c1)NC(=O)/C2=C1/C(=O)Nc2cc(Br)ccc21 [6B6MCIId, Methyl 6-bromoisoindigo-6′-carboxylate]" result_type="E1/2 in N2 (second)" readout_number=−1.55

Qu. Need E1/2 in N2 (second), item COC(=O)c1ccc2c(c1)NC(=O)/C2=C1/C(=O)Nc2ccc([N+](=O)[O-])cc21 [5N6MCIId, Methyl-5-nitroisoindigo-6-carboxylate]
Ans. −1.40

Qu. Need E1/2 in N2 (second), item O=C1Nc2ccc(Br)cc2/C1=C1\C(=O)Nc2ccc(Br)cc21 [55DBIId, 5,5′-Dibromoisoindigo]
Ans. −1.61

This collection of values is drawn from patent US20250128203A1.
